Value source: patent US20240270701A1

Consider the following compounds and their measured Emax readings.
- experimental.target: B1-AR (Homo sapiens, UniProt P08588)
- Construct: expressed in transfected cells; host or cells: CHO-K1
- Sequence (P08588 whole entry, species assumed): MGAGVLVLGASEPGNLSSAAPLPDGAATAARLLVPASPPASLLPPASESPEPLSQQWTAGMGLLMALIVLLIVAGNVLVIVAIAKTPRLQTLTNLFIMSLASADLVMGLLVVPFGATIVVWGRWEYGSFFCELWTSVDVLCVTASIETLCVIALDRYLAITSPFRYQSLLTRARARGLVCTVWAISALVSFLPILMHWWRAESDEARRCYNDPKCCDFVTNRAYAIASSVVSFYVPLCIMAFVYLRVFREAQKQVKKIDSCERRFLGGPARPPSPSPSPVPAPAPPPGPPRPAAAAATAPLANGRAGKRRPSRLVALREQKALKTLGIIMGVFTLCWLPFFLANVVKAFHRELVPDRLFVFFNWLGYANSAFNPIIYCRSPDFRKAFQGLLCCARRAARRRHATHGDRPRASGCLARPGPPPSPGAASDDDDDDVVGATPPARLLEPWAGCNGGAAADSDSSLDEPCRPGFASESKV
- assay.name: cAMP Gs dynamic HTRF assay, cells expressing beta-adrenergic receptor (CHO-K1), B1-AR
- Assay type: cell-based
- assay.context: relative to full agonist isoproterenol, read-out: Emax (% iso) (%) [B1-AR]
- Description: cAMP homogeneous time-resolved fluorescence (HTRF): experimental methods. Compound efficacy is determined using the cAMP Gs dynamic HTRF assay (Cisbio, catalog #62AM4PEC) largely following the manufacturer's instructions, also detailed below. Standard serial dilution curves are 10-point, 5-fold dilutions starting from a highest concentration of 10 μM. […]

smiles.structure | Emax
Cn1ncc2c([C@@H](O)CNC(C)(C)C)ccc(F)c21 | 50 to 70%
CC(C)NC[C@H](O)c1cccc2[nH]nc(Cl)c12 | > 90%
COc1ccnc2ccc([C@@H](O)CNC(C)(C)C)cc12 | < 50%
CC(C)(C)NC[C@H](O)c1cccc2[nH]c(=O)sc12 | 70 to 90%
CC1(NC[C@H](O)c2cccc3[nH]nc(Cl)c23)CC1 | 70 to 90%
CC1(NC[C@H](O)c2cccc3[nH]ncc23)CC1 | > 90%
CCC(C)(C)NC[C@H](O)c1cncc2[nH]ncc12 | 70 to 90%
CC(C)[C@@H](C)NC[C@H](O)c1ccc(F)c2[nH]ncc12 | 70 to 90%

Problem: Any idea what its Emax is? The compound is `CC(C)CNC[C@H](O)c1ccc2[nH]cc(F)c2c1`
Solution: 70 to 90%

Problem: And the next one, `Cc1cc([C@@H](O)CNC2CCC2)c2cn[nH]c2c1` ?
Solution: > 90%

Problem: Can you handle `C[C@H](NC[C@H](O)c1ccc(F)c2[nH]ncc12)C(C)(C)C` next?
Solution: 70 to 90%

Problem: Now try `CC1(NC[C@H](O)c2cccc3[nH]nc(F)c23)CCC1` .
Solution: > 90%

Problem: Try this compound next: `COc1ccc(C[C@@H](C)NC[C@H](O)c2cccc3[nH]nc(F)c23)cc1`
Solution: > 90%

Problem: Same question for `CC1(NC[C@H](O)c2ccc(Cl)c3[nH]ncc23)CC1` please.
Solution: 70 to 90%

Problem: Likewise for `CC(C)C(C)(C)NC[C@H](O)c1cccc2[nH]nc(F)c12` ?
Solution: > 90%

Problem: Next entry: `CCC(CC)NC[C@H](O)c1cccc2[nH]ncc12`
Solution: > 90%
